Test system: Escherichia coli (including ESBLs, non-ESBLs)
Test: MIC, two-fold agar dilution (CLSI), clinical isolates
Type: cell-based
Details: strain ECO− 15-1
# maps each entry to its MIC (anti-bacterial activity)
Reply with just the number (in µg/mL).

Some solved cases for reference:
ENTRY_SMILES | MIC (anti-bacterial activity) (µg/mL)
O=CN(O)C[C@@H](CC1CCCC1)C(=O)N1CC2(CC2)C[C@H]1C(=O)Nc1ccno1 | 32
O=CN(O)C[C@@H](CC1CCCC1)C(=O)N1CC2(CC2)C[C@H]1C(=O)Nc1ccncn1 | 32
CCCC[C@H](CN(O)C=O)C(=O)N1CC2(CC2)C[C@H]1C(=O)Nc1cnccn1 | 32

MIC (anti-bacterial activity) for `Cc1cnc(NC(=O)[C@@H]2CC3(CC3)CN2C(=O)[C@H](CC2CCCC2)CN(O)C=O)s1` ? 16

----------
System: Enterococcus faecium (EFM)
Assay: MIC, two-fold agar dilution (CLSI), clinical isolates
Assay type: cell-based
Conditions: strain EFM 15-6
Text: 1. The invention adopts the two-fold agar dilution method recommended by the operating procedure of antimicrobial susceptibility testing set by American Clinical and Laboratory Standards Institute (CLSI) to determine the Minimum Inhibitory Concentration (MIC) of the test samples against the tested strains.
REPORTED_METRIC: Anti-bacterial activity (MIC)
Include the unit after the number when you answer.

COMPOUND | READOUT_VALUE
CCCC[C@H](CC(=O)NO)C(=O)N1CC2(CCCC2)C[C@H]1C(=O)Nc1ccc(F)cn1 | 1 µg/mL
O=C(C[C@@H](CC1CCCC1)C(=O)N1CC2(CC2)C[C@H]1C(=O)NC1CC1)NO | 4 µg/mL
O=C(C[C@@H](CC1CCCC1)C(=O)N1CC2(CC2)C[C@H]1C(=O)Nc1nc(C(F)(F)F)cs1)NO | 1 µg/mL
O=C(C[C@@H](CC1CCCC1)C(=O)N1CC2(CC2)C[C@@H]1c1nc2ccccc2[nH]1)NO | 32 µg/mL
O=C(C[C@@H](CC1CCCC1)C(=O)N1CC2(CC2)C[C@H]1C(=O)Nc1nncs1)NO | 32 µg/mL
CCCC[C@H](CC(=O)NO)C(=O)N1CC2(CCCC2)C[C@H]1C(=O)Nc1ncc(C)s1 | 1 µg/mL

Which Anti-bacterial activity (MIC) is reported for this compound? `O=C(C[C@@H](CC1CCCC1)C(=O)N1CC2(CC2)C[C@H]1c1nc2ccccc2[nH]1)NO` 2 µg/mL

Please report the recorded Anti-bacterial activity (MIC) for `O=C(C[C@@H](CC1CCCC1)C(=O)N1CC2(CC2)C[C@H]1C(=O)Nc1cccnn1)NO` . 0.5 µg/mL

Value lookup for Anti-bacterial activity (MIC); key = `CCCC[C@H](CC(=O)NO)C(=O)N1CC2(CCCC2)C[C@H]1C(=O)Nc1cc(C)on1` 8 µg/mL

Name the reported Anti-bacterial activity (MIC) value associated with the compound `O=C(C[C@@H](CC1CCCC1)C(=O)N1CC2(CC2)C[C@H]1C(=O)Nc1ncccc1F)NO` 0.25 µg/mL

Tell me the measured Anti-bacterial activity (MIC) of `CCCC[C@H](CC(=O)NO)C(=O)N1CC2(CCCC2)C[C@H]1C(=O)Nc1cnccn1` , please. 2 µg/mL

----------
Some compounds, each annotated with its measured Anti-bacterial activity (MIC), strain EFM 15-4.
Tested on: Enterococcus faecium (EFM)
Test: MIC, two-fold agar dilution (CLSI), clinical isolates
Assay type: cell-based
Conditions: clinical isolate EFM 15-4
Please respond with the number in µg/mL and leave the unit unwritten.

Please review the following examples before continuing.
COMPOUND | TARGET_SYSTEM | UNITS | READOUT_VALUE
O=CN(O)C[C@@H](CC1CCCC1)C(=O)N1CC2(CC2)C[C@H]1C(=O)Nc1nncs1 | Enterococcus faecium (EFM) | µg/mL | 1
O=C(C[C@@H](CC1CCCC1)C(=O)N1CC2(CC2)C[C@H]1C(=O)Nc1ccc(F)cn1)NO | Enterococcus faecium (EFM) | µg/mL | 1
O=C(C[C@@H](CC1CCCC1)C(=O)N1CC2(CC2)C[C@H]1C(=O)Nc1ccncn1)NO | Enterococcus faecium (EFM) | µg/mL | 0.5

Param item = O=CN(O)C[C@@H](CC1CCCC1)C(=O)N1CC2(CC2)C[C@H]1C(=O)Nc1nccs1 (stereo in doubt) ; retrieve measured Anti-bacterial activity (MIC), strain EFM 15-4. 1

Data request, read-out Anti-bacterial activity (MIC), strain EFM 15-4, for `Cc1cnc(NC(=O)[C@@H]2CC3(CC3)CN2C(=O)[C@@H](CC(=O)NO)CC2CCCC2)s1` 0.25

Dear colleague, I am looking for the recorded Anti-bacterial activity (MIC), strain EFM 15-4 of the following compound: `O=CN(O)C[C@@H](CC1CCCC1)C(=O)N1CC2(CC2)C[C@H]1c1nc2ccccc2[nH]1` 4

What value of Anti-bacterial activity (MIC), strain EFM 15-4 has been recorded for this entry: `CCCC[C@H](CC(=O)NO)C(=O)N1CC2(CC2)C[C@H]1C(=O)Nc1nc(C)cs1` 2

Would you kindly share the measured Anti-bacterial activity (MIC), strain EFM 15-4 for `CCCC[C@H](CC(=O)NO)C(=O)N1CC2(CC2)C[C@H]1C(=O)Nc1nc(C(F)(F)F)cs1` ? 1
